src = ChEMBL document CHEMBL1131371

Assay: Compound was evaluated for inhibitory activity against Zn2+ deformylase.
outcome_measure: Ki (µM)
Just the number in µM, nothing appended.

Task: Fill in: Ki of CCCC[C@H](O[PH](=O)O)C(=O)N[C@@H](CC(C)C)C(=O)Nc1ccc([N+](=O)[O-])cc1 is ___
Output: 76
